The following are reported pKi results, target or system UniProtKB P49286.
Sequence (P49286 whole entry): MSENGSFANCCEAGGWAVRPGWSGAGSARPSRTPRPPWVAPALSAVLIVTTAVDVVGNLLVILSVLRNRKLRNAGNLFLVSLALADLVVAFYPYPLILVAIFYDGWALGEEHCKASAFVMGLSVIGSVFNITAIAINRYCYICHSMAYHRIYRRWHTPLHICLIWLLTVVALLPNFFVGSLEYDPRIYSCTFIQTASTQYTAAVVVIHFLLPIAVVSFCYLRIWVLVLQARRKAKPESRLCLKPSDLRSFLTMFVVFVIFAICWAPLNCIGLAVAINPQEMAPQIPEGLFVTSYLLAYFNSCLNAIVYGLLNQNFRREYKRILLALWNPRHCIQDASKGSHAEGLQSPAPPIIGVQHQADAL
# pKi: negative log10 of molar concentration; output just the value

// fetch pKi given entry COc1cc2c(CCNC(C)=O)c[nH]c2cc1O [melatonin, 6-Hydroxy]
8.70

Determine from records and report pKi for CC(=O)n1cc(CCN)c2cc(O)ccc21
6.77

###

Molecular target: Melatonin receptor type 1A (Ovis aries)
Sequence (P48040 whole entry): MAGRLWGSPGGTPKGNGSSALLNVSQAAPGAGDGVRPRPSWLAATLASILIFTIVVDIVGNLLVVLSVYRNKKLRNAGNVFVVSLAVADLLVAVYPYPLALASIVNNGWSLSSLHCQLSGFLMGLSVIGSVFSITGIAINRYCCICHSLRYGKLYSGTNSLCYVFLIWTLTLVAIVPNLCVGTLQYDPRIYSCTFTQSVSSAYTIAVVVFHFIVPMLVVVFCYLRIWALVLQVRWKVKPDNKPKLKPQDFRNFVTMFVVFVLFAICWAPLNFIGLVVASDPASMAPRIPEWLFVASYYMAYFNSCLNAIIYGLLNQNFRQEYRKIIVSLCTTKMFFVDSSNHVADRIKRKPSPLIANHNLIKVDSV
QUANTITY: pKi
Remember the convention: pKi equals -log10 of concentration in molar.

MOLECULE	QUANTITY	RECORDED NUMBER
CC(=O)n1cc(CCN)c2cc(O)ccc21 [NSC_260803]	pKi	6.85

Send back Melatonin receptor type 1A (Ovis aries) pKi of COc1cc2c(CCNC(C)=O)c[nH]c2cc1Cl only.
9.60
